- tgt: T1, IL-18 receptor (IL-18Rαβ) on cells (UniProt Q13478 19-541; O95256 20-599, limits assumed)
- T1 sequence (looked up) 1: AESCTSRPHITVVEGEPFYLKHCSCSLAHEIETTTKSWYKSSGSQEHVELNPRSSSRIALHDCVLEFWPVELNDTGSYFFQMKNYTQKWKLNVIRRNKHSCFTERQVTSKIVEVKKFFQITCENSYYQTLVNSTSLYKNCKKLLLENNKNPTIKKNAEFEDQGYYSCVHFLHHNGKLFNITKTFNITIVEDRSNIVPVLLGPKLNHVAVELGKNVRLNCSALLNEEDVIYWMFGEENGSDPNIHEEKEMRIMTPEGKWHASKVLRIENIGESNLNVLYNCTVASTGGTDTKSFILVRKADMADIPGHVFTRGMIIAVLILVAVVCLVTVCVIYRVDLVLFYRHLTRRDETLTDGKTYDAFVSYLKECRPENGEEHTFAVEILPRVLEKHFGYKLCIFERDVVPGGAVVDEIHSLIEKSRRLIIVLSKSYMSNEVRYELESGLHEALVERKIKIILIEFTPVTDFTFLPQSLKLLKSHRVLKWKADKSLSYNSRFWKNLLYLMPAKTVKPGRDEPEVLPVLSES
- T1 sequence (looked up) 2: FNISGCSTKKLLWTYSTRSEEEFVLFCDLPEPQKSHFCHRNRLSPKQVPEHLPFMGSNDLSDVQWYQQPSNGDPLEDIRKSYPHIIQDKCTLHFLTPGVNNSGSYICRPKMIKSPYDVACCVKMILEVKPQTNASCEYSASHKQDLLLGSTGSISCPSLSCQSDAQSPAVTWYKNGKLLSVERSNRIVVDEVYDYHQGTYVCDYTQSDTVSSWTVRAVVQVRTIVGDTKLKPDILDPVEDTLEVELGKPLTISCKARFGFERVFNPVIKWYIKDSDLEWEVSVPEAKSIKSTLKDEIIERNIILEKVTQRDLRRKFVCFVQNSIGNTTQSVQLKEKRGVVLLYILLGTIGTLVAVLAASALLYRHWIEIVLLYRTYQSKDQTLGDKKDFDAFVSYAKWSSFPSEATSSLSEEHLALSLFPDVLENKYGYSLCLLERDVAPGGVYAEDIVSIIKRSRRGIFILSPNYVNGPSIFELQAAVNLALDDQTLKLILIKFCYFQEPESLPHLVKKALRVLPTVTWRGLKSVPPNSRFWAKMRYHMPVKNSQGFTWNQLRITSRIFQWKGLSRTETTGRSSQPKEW
- test.protocol: cell-based or functional assay
Label scheme for Fold potency loss vs C086: lower than 7000 fold is 0.0, 7000 fold and above is 1.0.

Solved entries:
>  <binder>
C185 (ligand) MAAEPVEDNCINFVAMKFIDNTLYFIAEDDENLESDPLGYFGKLKSKLSIIRNLNDQVLFIDQGNRPLFEDMTDSDARDNAPRTIFIISMYADSQPRGMAVAISVKCEKISTLSAENKIISFKEMNPPDNIKDTKSDIIFFQRSVPGHDNKMQFESSSYEGYFLAAEKERDLFKLILKKEDELGDRSIMFTVQNED

>  <class.name>
1.0

$$$$
>  <binder>
C136 (ligand) YFGKLKSKLSIIRNLNDQVLFIDQGNRPLFEDMTDSDARDNAPRTIFIISMYADSQPRGMAVAISVKCEKISTLSAENKIISFKEMNPPDNIKDTKSDIIFFQRSVPGHDNKMQFESSSYEGYFLAAEKERDLFKLILKKEDELGDRSIMFTVQNEGGSGGSNIVPVLLGPKLNHVAVELGKNVRLNCSALLNEEDVIYWMFGEENGSDPNIHEEKEMRIMTPEGKWHASKVLRIENIGESNLNVLYNCTVASTGGTDTKSFILVRKADHHHHHH

>  <class.name>
0.0

$$$$
>  <binder>
C187 (ligand) MAAEPVEDNCINFVAMKFIDNTLYFIAEDDENLESDPLGLAGYFGKLKSKLSIIRNLNDQVLFIDQGNRPLFEDMTDSDARDNAPRTIFIISMYADSQPRGMAVAISVKCEKISTLSAENKIISFKEMNPPDNIKDTKSDIIFFQRSVPGHDNKMQFESSSYEGYFLAAEKERDLFKLILKKEDELGDRSIMFTVQNED

>  <class.name>
1.0

$$$$

Query: Identify whether the reported Fold potency loss vs C086 of the following binder is 7000 fold or greater: C189 (ligand) YFGKLKSKLSIIRNLNDQVLFIDQGNRPLFEDMTDSDARDNAPRTIFIISMYADSQPRGMAVAISVKCEKISTLSAENKIISFKEMNPPDNIKDTKSDIIFFQRSVPGHDNKMQFESSSYEGYFLAAEKERDLFKLILKKEDELGDRSIMFTVQNESGGPGPAGMKGLPGSNIVPVLLGPKLNHVAVELGKNVRLDCSALLNEEDVIYWMFGEEDGSDPNIHEEKEMRIMTPEGKWHASKVLRIENIGESNLNVLYDCTVASTGGTDTKSFILVRKADHHHHHH
Result: 0.0

Query: Identify whether the reported Fold potency loss vs C086 of the following binder is 7000 fold or greater: C137 (ligand) YFGKLKSKLSIIRNLNDQVLFIDQGNRPLFEDMTDSDARDNAPRTIFIISMYADSQPRGMAVAISVKCEKISTLSAENKIISFKEMNPPDNIKDTKSDIIFFQRSVPGHDNKMQFESSSYEGYFLAAEKERDLFKLILKKEDELGDRSIMFTVQNEGGGGSGGGGSGGGGSNIVPVLLGPKLNHVAVELGKNVRLNCSALLNEEDVIYWMFGEENGSDPNIHEEKEMRIMTPEGKWHASKVLRIENIGESNLNVLYNCTVASTGGTDTKSFILVRKADHHHHHH
Result: 0.0
